Would you mind telling me the reported TGI of each entry?
test system: SF-295 CNS; experiment: NCI tumour cell line growth inhibition, 48 h

// below: answered compounds
- COMPOUND: "S=C(N/N=C\\C=N/NC(=S)N1CCCCCC1)N1CCCCCC1"
  TESTED_ON: "SF-295 CNS"
  TGI: "> 100 µM"
- COMPOUND: "COc1cc(C)c(C(=O)O[C@H]2[C@H](O[C@H]3[C@@H](O)COC(O[C@H]4C[C@H]5[C@@H]6CC=C7C[C@@H](O)CC[C@]7(C)[C@H]6CC[C@]5(C)[C@H]4[C@H](C)C(=O)CCC(C)C)[C@@H]3OC(C)=O)OC[C@@H](O)[C@@H]2O)c(C)c1 (stereo partly drawn)"
  TESTED_ON: "SF-295 CNS"
  TGI: "< 0.01 µM"
- COMPOUND: "c1ccc(CCN2CCCCCC2)nc1"
  TESTED_ON: "SF-295 CNS"
  TGI: "> 100 µM"
- COMPOUND: "COC(=O)/C=C/C(=O)C1C(C(=O)OC)C2(C(=O)OC)CCC1(C(=O)OC)N2 (stereo not drawn)"
  TESTED_ON: "SF-295 CNS"
  TGI: "> 100 µM"
- COMPOUND: "CCCCCCCCCCCC(=O)OCC1OC(n2cc(F)c(=O)[nH]c2=O)C(NC(=O)OCc2ccccc2)C(O)C1O (stereo not drawn)"
  TESTED_ON: "SF-295 CNS"
  TGI: "63.9 µM"

Field: TGI. Fill in for each record below.
1. Nc1ncnc2c1c(C(F)(F)F)cn2[C@@H]1O[C@H](CO)[C@@H](O)[C@H]1O
2. O=C(c1ccc2ccccc2c1)C1S(=O)(=O)OCCOS1(=O)=O
3. c1ccc2c(CNCCCCCCNCc3cccc4ccccc34)cccc2c1

Reply:
1: > 23.3 µM; 2: > 100 µM; 3: 24.8 µM

----------
tested on: KM12 colon; test: NCI tumour cell line growth inhibition, 48 h
READOUT: log10 of TGI (log10 of the value in µM)
Answers are given as log10 of TGI in µM.

// below: answered compounds
- COMPOUND: "CC1=CC(O)C(O)C2(C)C1CC1OC(=O)C(O)C3C(C)C(O)C4(O)OCC13C42 (centres undefined)"
  READOUT: "log10 of TGI"
  REPORTED_MEASUREMENT: 2.59
- COMPOUND: "Cc1cc(C)c(S(=O)(=O)N(CCCCN)OCCCN)c(C)c1"
  READOUT: "log10 of TGI"
  REPORTED_MEASUREMENT: 1.54
- COMPOUND: "COc1cc([C@@H]2c3cc4c(cc3[C@@H](NC(=O)c3ccc(N)cc3)C3COC(=O)[C@@H]32)OCO4)cc(OC)c1O (some centres undefined)"
  READOUT: "log10 of TGI"
  REPORTED_MEASUREMENT: 1.14
- COMPOUND: "C=C(C=O)C1CC(=O)C(C(=O)OC)[C@@H]2O[C@@](C)(CC2=O)C[C@@H]2OC(=O)[C@]3(O[C@@H]23)[C@@H](C(=O)OC)C1 (some centres undefined)"
  READOUT: "log10 of TGI"
  REPORTED_MEASUREMENT: 1.65
- COMPOUND: "Cc1ccc(Cl)cc1Nc1nc(C(F)(F)F)ccc1C(=O)Nc1cccc(C(F)(F)F)c1"
  READOUT: "log10 of TGI"
  REPORTED_MEASUREMENT: 1.11
- COMPOUND: "N#CC1=C(N)C(C#N)(C#N)C(c2ccc(F)cc2)C=C1C1CC1 (centres undefined)"
  READOUT: "log10 of TGI"
  REPORTED_MEASUREMENT: 1.20
- COMPOUND: "CCCCCCCCCCCC(=O)OCC1OC(n2cc(F)c(=O)[nH]c2=O)C(NC(=O)OCc2ccccc2)C(O)C1O (centres undefined)"
  READOUT: "log10 of TGI"
  REPORTED_MEASUREMENT: 1.63

Now consider a different compound.
Task item: Write down log10 of TGI measured for item CCN(CC)CCN1C(=O)c2c(c(C)c3c(oc4cc(O)ccc43)c2C)C1=O
Reply: 0.57
